Cited source for all entries: patent US20200291018A1

Molecular target: AXL (Homo sapiens, UniProt P30530)
Sequence (P30530 26-894): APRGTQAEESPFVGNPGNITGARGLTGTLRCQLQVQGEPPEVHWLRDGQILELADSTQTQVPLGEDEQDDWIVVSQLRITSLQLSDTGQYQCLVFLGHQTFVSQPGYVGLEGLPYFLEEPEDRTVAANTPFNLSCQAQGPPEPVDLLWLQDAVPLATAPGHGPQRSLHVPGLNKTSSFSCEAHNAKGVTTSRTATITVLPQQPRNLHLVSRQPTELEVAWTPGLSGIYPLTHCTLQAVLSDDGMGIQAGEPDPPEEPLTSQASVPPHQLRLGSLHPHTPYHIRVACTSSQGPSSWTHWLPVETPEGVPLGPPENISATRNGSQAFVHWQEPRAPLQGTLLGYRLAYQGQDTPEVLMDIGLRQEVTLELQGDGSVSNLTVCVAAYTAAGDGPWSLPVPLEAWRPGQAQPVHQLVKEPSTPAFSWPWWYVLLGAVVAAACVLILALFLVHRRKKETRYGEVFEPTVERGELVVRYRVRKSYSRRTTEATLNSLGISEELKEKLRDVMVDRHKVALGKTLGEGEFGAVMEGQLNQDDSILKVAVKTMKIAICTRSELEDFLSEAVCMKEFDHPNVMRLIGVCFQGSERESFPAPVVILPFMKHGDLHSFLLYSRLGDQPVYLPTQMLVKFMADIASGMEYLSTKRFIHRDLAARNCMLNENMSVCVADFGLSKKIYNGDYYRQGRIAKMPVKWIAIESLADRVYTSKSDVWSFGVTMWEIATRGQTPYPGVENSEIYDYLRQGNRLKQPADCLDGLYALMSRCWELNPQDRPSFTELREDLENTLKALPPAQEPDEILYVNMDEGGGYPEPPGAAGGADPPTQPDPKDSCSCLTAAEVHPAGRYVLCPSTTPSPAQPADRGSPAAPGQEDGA
TEST_READOUT: IC50

Enquiry: Consider the molecule `COC[C@H](C)Nc1ncc2c(O[C@H]3CCOC3)ncc([C@H]3CC[C@H](O)CC3)c2n1` and give its measured IC50.
Return: 1 to 10 µM

Enquiry: Name the reported IC50 value associated with the molecule CCCC(C)Nc1ncc2c(=O)n(C3CCN(CC(=O)N(C)C)CC3)cc([C@H]3CC[C@@H](O)CC3)c2n1 (stereo partly shown)
Return: 0.1 to 1 µM
